# System: HOP-92 NSCLC
# MEASUREMENT PROTOCOL: NCI tumour cell line growth inhibition, 48 h

| COMPOUND | TEST TARGET | TGI |
| --- | --- | --- |
| C[C@@H]1OC(=O)C[C@H]2CC(=O)N(CCc3cn(S(=O)(=O)C(F)(F)F)c4ccccc34)C[C@@H]21 | HOP-92 NSCLC | > 100 µM |
| Nc1ncc(Cc2nc3ccccc3s2)s1 | HOP-92 NSCLC | > 100 µM |
| O=[As](O)(O)c1ccc(Cc2ccc([As](=O)(O)O)cc2)cc1 | HOP-92 NSCLC | 2.92 µM |
| O=c1nc2cc(-c3ccccc3)[nH]c2nn1-c1c(Cl)cc(Cl)cc1Cl | HOP-92 NSCLC | 64 µM |
| COc1ccc([C@H]2O[C@@H](CO)C[C@]2(O)c2ccc(OC)cc2)cc1 | HOP-92 NSCLC | > 100 µM |
| NC(=O)N(O)c1cccc(Br)c1 | HOP-92 NSCLC | > 100 µM |
| O=C1/C(=C/c2cccs2)CCC/C1=C\c1cccs1 | HOP-92 NSCLC | 57.8 µM |
| CC(C)(C)C=C=C(C(C)(C)C)P(=O)(O)O | HOP-92 NSCLC | > 100 µM |
| NC(CSC(c1ccccc1)(c1ccccc1)c1ccc2ccccc2c1)C(=O)O (configuration not stated) | HOP-92 NSCLC | 23.2 µM |
| O=[N+]([O-])c1ccc(Cl)c(C2SCc3nc4ccccc4n32)c1 (configuration not stated) | HOP-92 NSCLC | 45.3 µM |
| COc1cc2c(cc1C)n(O)c(C)c(C(=O)C/C(=N/NC(=O)C[N+](C)(C)C)C(=O)Nc1cccc(Cl)c1C)[n+]2=O | HOP-92 NSCLC | > 100 µM |
| CN1C[C@@H]2CCCN2P1Oc1cccc2cccnc12 (some centres not stated) | HOP-92 NSCLC | > 100 µM |
| COc1ccc(C(O)c2cc3c(N)c(C(=O)Nc4cccc(Br)c4)sc3nc2C)cc1 (configuration not stated) | HOP-92 NSCLC | 21.3 µM |
| O=C(/C=C/c1ccc(O)c(O)c1)OCCOC(=O)/C=C/c1ccc(O)c(O)c1 | HOP-92 NSCLC | > 100 µM |
| O=c1[nH]c(-c2ccc(C(F)(F)F)cc2)nc2c1CSCC2 | HOP-92 NSCLC | 46.3 µM |
| Cn1cnc([N+](=O)[O-])c1Sc1ncnc2c1ncn2C1OC(CO)C(O)C1O (configuration not stated) | HOP-92 NSCLC | > 100 µM |
| COc1cc2c(cc1OC)C(Cl)C(c1cc(OC)c(OC)c(OC)c1)=C2Cl (configuration not stated) | HOP-92 NSCLC | 27.9 µM |
| O=c1[nH]c(=S)[nH]c(O)c1/C=C1\C=CC=N1 | HOP-92 NSCLC | 36.1 µM |
| CC1=C2C(c3ccccc3)(c3ccccc3)C3C=CC2(C=N3)N(C(=O)NC2CCCCC2)C1=O (configuration not stated) | HOP-92 NSCLC | 27.4 µM |
| Cc1ccc(N2C(=O)/C(=C3\Sc4c(nc(C)[nH]c4=O)N3c3ccccc3)SC2=S)cc1 | HOP-92 NSCLC | 97.3 µM |
| Cn1c(=O)n(CC(Br)CBr)c(=O)n(CC(Br)CBr)c1=O (configuration not stated) | HOP-92 NSCLC | > 100 µM |
| Nc1c(C(=O)c2ccccc2)[nH]c(NCc2ccccc2)c1C(=S)Nc1ccccc1 | HOP-92 NSCLC | > 100 µM |
| CC(C)(C)OC(=O)N1N=NC2C3CC(=O)C(O3)C21 (configuration not stated) | HOP-92 NSCLC | > 100 µM |
| CSC(=NCCN=C(NS(=O)(=O)c1ccc(Cl)cc1)SC)NS(=O)(=O)c1ccc(Cl)cc1 | HOP-92 NSCLC | 58 µM |
| COc1ccc2c(c1)CC[C@@H]1C2CC[C@]2(C)C(=O)NC(=O)CC12 (some centres not stated) | HOP-92 NSCLC | > 100 µM |
| COC/C=C\[C@@]1(O)CCCC[C@@H]1CC(OC)OC | HOP-92 NSCLC | > 100 µM |
| CCc1cccc(C)c1NC(=O)NS(=O)(=O)c1ccc(C)cc1 | HOP-92 NSCLC | > 100 µM |

----------
# Test system: SNB-75 CNS
# MEASUREMENT PROTOCOL: NCI tumour cell line growth inhibition, 48 h
# maps each entry to its TGI

| MOLECULE | INEQUALITY OPERATOR | TGI, µM |
| --- | --- | --- |
| Cn1ccnc1C(=O)/C=C/c1ccc(C(=O)Nc2nc3ccccc3[nH]2)cc1 | = | 15.9 |
| C[N+]1(C)CN(c2ccccc2)C2(CCN(CCCC(=O)c3cccs3)CC2)C1=O | > | 100 |
| CC(C)(C)C=C=C(C(C)(C)C)P(=O)(O)O | > | 100 |
| Cc1nc2c(-c3ccccc3)[nH]c(C)c2c(=O)o1 | > | 100 |
| O=C(O)c1ccccc1/C=N\NC1=NCCN1 | > | 100 |
| CCOC(=O)CCC(NC(=O)OCc1ccccc1)C(=O)NC(CCC(=O)OCC)C(=O)NC(CCC(=O)OCC)C(=O)NC(CCC(=O)OCC)C(=O)NC(CCC(=O)OCC)C(=O)OCC (stereo not given) | > | 100 |
| Oc1c(CN2CCCC2)cc(COCc2ccccc2)c2cccnc12 | = | 28.6 |
| CC(=O)c1cn(-c2ccc(Cl)cc2)c(=O)c2c(N)n[nH]c12 | > | 100 |
| NC(CCCCNc1ccn(C2OC(CO)C(O)C2O)c(=O)n1)C(=O)O (stereo not given) | > | 100 |
| O=[N+]([O-])C1(C2([N+](=O)[O-])CCCC2)CCCC1 | > | 100 |
| COc1ccccc1/C=C\c1cc(OC)c(OC)c(OC)c1 | = | 72.6 |
| COC(=O)C1=C(C)NC(C)=C([N+](=O)[O-])C1c1cccc(NO)c1 (stereo not given) | > | 100 |
| Cn1c(O)c(C(=O)Nc2ccc([N+](=O)[O-])cc2)c(=O)n(C)c1=S | = | 6.37 |
| COc1cc(CC2c3cc(OC)c(OC)cc3CCN2C)c(Oc2cc3c(cc2OC)-c2c(OC)c(OC)c(OC)c4c2C(C3)N(C)CC4)cc1OC (stereo not given) | = | 25 |
| O=Nc1c(O)ccc2ccccc12 | = | 14.5 |
| Cc1cn(C2CC(N=[N+]=[N-])C(CO[Si](C)(C)C(C)(C)C)O2)c(=O)[nH]c1=O (stereo not given) | = | 42.9 |
| CC[C@@H]1OC2(C)CC(S(=O)(=O)c3ccccc3)CC1O2 (stereo not given in full) | > | 100 |
| COc1ccc(C2S/C(=C\c3ccc(OC)cc3OC)C(=O)N2NC(=O)Cc2ccccc2)cc1 (stereo not given) | > | 100 |
| CCCc1c2c3ccccc3nc-2nc2ccccn12 | > | 100 |
| COC(=O)CCC1=C(C)c2cc3[n-]c(cc4nc(cc5[n-]c(cc1n2)c(CCC(=O)OC)c5C)C=C4C)cc3C.[Cd+2] | = | 33.8 |

----------
# maps each entry to its TGI
# Test system: SR leukemia
# MEASUREMENT PROTOCOL: NCI tumour cell line growth inhibition, 48 h
PARAMETER: TGI

| COMPOUND | PARAMETER | RESULT |
| --- | --- | --- |
| Cc1cccc2c1C(=O)C(C1OC(=O)c3ccccc31)C2 (stereo not drawn) | TGI | > 100 µM |
| CC1(C)CC(=O)c2c(nc3ccc4ccccc4c3c2-c2ccc(NC(=O)CCCCC(=O)Nc3ccc(-c4c5c(nc6ccc7ccccc7c46)CC(C)(C)CC5=O)cc3)cc2)C1 | TGI | > 100 µM |
| CC1OC(=O)c2ccccc2NC1=O (stereo not drawn) | TGI | > 100 µM |

----------
# System: MDA-N
# MEASUREMENT PROTOCOL: NCI tumour cell line growth inhibition, 48 h
# maps each entry to its TGI
PARAMETER: TGI

| MOLECULE | TEST TARGET | PARAMETER | RESULT |
| --- | --- | --- | --- |
| COc1ccc(C(Nc2ncccn2)c2cc3c(cc2O)OCO3)cc1 (stereo unspecified) | MDA-N | TGI | 42.3 µM |
| CC(Cc1ccc(O)c(O)c1)C(C)Cc1ccc(O)c(O)c1 (stereo unspecified) | MDA-N | TGI | 26.3 µM |
| N#Cc1c(NC(=S)NCc2ccccc2)sc2c1CCN(N1CCc3c(sc(NC(=S)NCc4ccccc4)c3C#N)C1)C2 | MDA-N | TGI | > 100 µM |
| Cc1cc(=Nc2ccc3c(c2)c(N)cc(C)[n+]3C)nc(N)n1C | MDA-N | TGI | > 100 µM |
| CCCCCCCSCC(O)COC(c1ccccc1)(c1ccccc1)c1ccccc1 (stereo unspecified) | MDA-N | TGI | > 100 µM |
| O=C(C1OC1c1ccc([N+](=O)[O-])cc1)C12CC3CC(CC(C3)C1)C2 (stereo unspecified) | MDA-N | TGI | 24.3 µM |
| Fc1ccc(C(OCCN2CCC3CCC(C2)N3Cc2cc3ccccc3[nH]2)c2ccc(F)cc2)cc1 (stereo unspecified) | MDA-N | TGI | 3.1 µM |
| CCNCC(O)c1ccc(N)c([N+](=O)[O-])c1 (stereo unspecified) | MDA-N | TGI | > 100 µM |
| CN(C)c1ccc(/C=C/c2ccnc3ccccc23)cc1 | MDA-N | TGI | 40.1 µM |
| C[C@@H]1C(O)CC[C@H](C)C12CC=CC2=O (stereo partly specified) | MDA-N | TGI | > 100 µM |
| O=C(O)c1ccccc1/C=N\NC1=NCCN1 | MDA-N | TGI | > 100 µM |
| CCCc1c2c3ccccc3nc-2nc2ccccn12 | MDA-N | TGI | > 100 µM |
| Cc1ccc(S(=O)(=O)N/N=C2\C=C[C@]3(CC2)C(=O)N(C)c2ccccc23)cc1 | MDA-N | TGI | > 100 µM |
| Cn1c(=O)n(CC(Br)CBr)c(=O)n(CC(Br)CBr)c1=O (stereo unspecified) | MDA-N | TGI | > 100 µM |
| CCC1(C)N=C(C(N)=O)c2ncn(N=C(C)C)c2N1 (stereo unspecified) | MDA-N | TGI | > 100 µM |
| CC(=O)c1cccc(NC2C(N)C(NC(=O)N(C)C)(C(C)O)C(C)(O)C2(O)COC(=O)c2c(C)cccc2O)c1 (stereo unspecified) | MDA-N | TGI | 0.0135 µM |
